# MEASUREMENT TARGET: human parathyroid hormone receptor 1 (human, UniProt Q03431)
# EXPERIMENT NOTES: cell-based or functional assay
Non-standard residues stand in square brackets, D forms with d. No end group written: not given here. 1Nal = N[C@@H](Cc1cccc2ccccc12)C(=O)O; β3hI = CC[C@H](C)[C@H](N)CC(=O)O; β3hF = N[C@H](CC(=O)O)Cc1ccccc1; Nle = CCCC[C@H](N)C(=O)O; β3hA = C[C@H](N)CC(=O)O; Aib = CC(C)(N)C(=O)O
MEASURED PROPERTY: hPTHR-1 EC50 (nM), CRE-luciferase reporter gene assay

Some binders with known hPTHR-1 EC50 (nM), CRE-luciferase reporter gene assay results, for comparison:
BINDER	OBSERVED VALUE
SVSEIQL[Nle]HNLGKHLNS[β3hA]ERVE[1Nal]LRKLLQDVHNF-NH2 [[Nle^8, β-hAla^18, 1-Nal^23, Leu^27] hPTH (1-34)-NH2]	0.22 nM
SVSEIQL[Nle]HNLGKHLSS[β3hI]ERVE[1Nal]LRKLLQDVHNF-NH2 [[Nle^8, Ser^16, β-hIle^18, 1-Nal^23, Leu^27] hPTH (1-34)-NH2]	0.19 nM
SVSEIQL[Nle]HNLGKHLNS[β3hF]ERVE[1Nal]LRKLLQDVHNF-NH2 [[Nle^8, β-hPhe^18, 1-Nal^23, Leu^27] hPTH (1-34)-NH2]	0.11 nM
SVSEIQL[Nle]HNLGKHLNS[β3hI]ERVE[1Nal]LRKLLQSVHNF-NH2 [[Nle^8, β-hIle^18, 1-Nal^23, Leu^27, Ser^30] hPTH (1-34)-NH2]	0.19 nM
SVSEIQL[Nle]HSLGKHLKS[β3hI]ERVE[1Nal]LRKLLQRVHEF-NH2 [[Nle^8, Ser^10, Lys^16, β-hIle^18, 1-Nal^23, Leu^27, Arg^30, Glu^33] hPTH(1-34)-NH2]	0.12 nM

Okay, now this binder:
Query string: So what does the record say about hPTHR-1 EC50 (nM), CRE-luciferase reporter gene assay for [Aib]VSEIQL[Nle]HNLGKHLNS[β3hI]ERVE[1Nal]LRKLLQDVHNF-NH2 [[Aib^1, Nle^8, β-hIle^18, 1-Nal^23, Leu^27] hPTH (1-34)-NH2] ?
Result string: 0.04 nM
